Value source: patent US20260015340A1

Target: HPK1 (h) (Homo sapiens (Human), UniProt Q92918)
Sequence (Q92918 whole entry): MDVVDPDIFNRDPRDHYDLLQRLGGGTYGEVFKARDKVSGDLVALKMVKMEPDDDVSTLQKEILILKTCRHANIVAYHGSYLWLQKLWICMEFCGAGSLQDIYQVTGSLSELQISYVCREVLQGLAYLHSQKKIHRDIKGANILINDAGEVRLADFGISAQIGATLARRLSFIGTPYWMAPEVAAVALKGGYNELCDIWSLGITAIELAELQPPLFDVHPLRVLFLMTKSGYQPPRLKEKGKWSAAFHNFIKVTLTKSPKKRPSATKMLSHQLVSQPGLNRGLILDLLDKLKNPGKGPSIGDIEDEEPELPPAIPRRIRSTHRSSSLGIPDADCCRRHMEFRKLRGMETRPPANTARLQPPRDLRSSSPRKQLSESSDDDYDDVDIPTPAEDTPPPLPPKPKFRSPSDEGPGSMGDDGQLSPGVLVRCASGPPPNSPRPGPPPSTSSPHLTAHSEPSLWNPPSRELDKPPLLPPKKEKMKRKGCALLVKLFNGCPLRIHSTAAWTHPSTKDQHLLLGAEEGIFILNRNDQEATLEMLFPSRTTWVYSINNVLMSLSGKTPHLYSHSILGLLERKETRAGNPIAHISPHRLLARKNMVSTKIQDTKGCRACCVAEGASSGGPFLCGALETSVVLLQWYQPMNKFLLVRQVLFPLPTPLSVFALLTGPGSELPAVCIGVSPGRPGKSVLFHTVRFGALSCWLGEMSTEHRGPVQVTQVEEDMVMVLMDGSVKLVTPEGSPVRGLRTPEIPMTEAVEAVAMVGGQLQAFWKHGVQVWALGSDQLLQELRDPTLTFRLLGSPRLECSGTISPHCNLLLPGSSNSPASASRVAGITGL
Test: Inhibition against kinase activity of HPK1 (33P-ATP filter assay)
Format: biochemical
Details: approximate value; read-out: IC50 value for HPK1 inhibition
Experimental: Inhibition against kinase activity of HPK1 was measured as follows. Recombinant human HPK1 protein was mixed with the compounds in a reaction solution (8 mM MOPS, pH 7.0, 0.2 mM EDTA, 0.33 mg/mL myelin basic protein, 10 mM magnesium acetate, and 15 μM [gamma-33P-ATP]). The mixture was incubated at room temperature for 40 minutes. The reaction was terminated by adding phosphoric acid at a final concentration of 0.5%. […] The filters were dried, and HPK1 activity was measured via scintillation counting. […]
Assign IC50 to each entry below.

molecule: CC1(C)OC(=O)c2cc(Nc3nc(Nc4ccc5c(c4)CCNC5)ncc3Cl)ccc21
metric: IC50
obs value: ~50 nM
//
molecule: CC1(C)OC(=O)c2ccc(Nc3ncc(Cl)c(Nc4ccc5c(c4)C(C)(C)OC5=O)n3)cc21
metric: IC50
obs value: ~900 nM

# context switch: different compound, same IC50
[ask] Hi! What's the reported IC50 for "CC1(C)OC(=O)c2ccc(Nc3nc(Nc4ccc5c(c4)CCNC5)ncc3Cl)cc21" on HPK1 (h) (Homo sapiens (Human), UniProt Q92918)?
[reply] ~30 nM

---

Biological target: MLK3 (h) (Homo sapiens)
Sequence (Q16584 whole entry, looked up): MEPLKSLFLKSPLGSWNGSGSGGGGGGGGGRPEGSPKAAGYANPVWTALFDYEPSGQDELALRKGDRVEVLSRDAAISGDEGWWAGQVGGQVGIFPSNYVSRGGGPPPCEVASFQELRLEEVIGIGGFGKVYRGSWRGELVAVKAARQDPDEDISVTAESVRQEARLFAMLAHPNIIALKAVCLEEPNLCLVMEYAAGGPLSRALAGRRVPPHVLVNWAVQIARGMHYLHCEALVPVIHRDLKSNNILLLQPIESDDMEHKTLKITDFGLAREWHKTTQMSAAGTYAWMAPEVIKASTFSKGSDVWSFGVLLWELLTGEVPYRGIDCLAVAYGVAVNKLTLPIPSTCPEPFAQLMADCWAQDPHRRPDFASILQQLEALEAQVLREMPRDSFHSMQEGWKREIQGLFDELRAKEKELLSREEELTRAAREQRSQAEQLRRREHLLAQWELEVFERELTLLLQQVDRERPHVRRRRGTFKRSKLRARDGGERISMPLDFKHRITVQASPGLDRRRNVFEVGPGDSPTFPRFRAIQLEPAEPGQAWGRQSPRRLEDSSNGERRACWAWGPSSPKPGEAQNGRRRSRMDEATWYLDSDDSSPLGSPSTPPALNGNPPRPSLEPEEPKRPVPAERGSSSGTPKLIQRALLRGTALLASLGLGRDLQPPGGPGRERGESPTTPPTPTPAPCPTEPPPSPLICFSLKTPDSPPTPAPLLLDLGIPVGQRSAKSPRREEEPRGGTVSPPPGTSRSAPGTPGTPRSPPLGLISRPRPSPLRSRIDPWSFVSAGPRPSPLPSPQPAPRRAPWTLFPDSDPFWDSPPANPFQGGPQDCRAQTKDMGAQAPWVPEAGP
Experiment: Inhibition against kinase activity of MLK3 (33P-ATP filter assay)
Format: biochemical
Details: approximate value; read-out: IC50 value for MLK3 inhibition
pIC50: −log10 of the molar value.
metric: pIC50

molecule: CC1(C)OC(=O)c2ccc(Nc3nc(Nc4ccc5c(c4)CCNC5)ncc3Cl)cc21
metric: pIC50
obs value: ~6.85

# context switch: different compound, same pIC50
[ask] Quick one: pIC50 of "CC1(C)OC(=O)c2cc(Nc3nc(Nc4ccc5c(c4)CCNC5)ncc3Cl)ccc21" ?
[reply] ~6.70

---

Molecular target: UniProtKB Q92918
Test: Inhibition against kinase activity of HPK1 (33P-ATP filter assay)
Type: biochemical
Details: HPK1 (h), 15 μM ATP; read-out: IC50
pIC50: −log10 of the molar value.
Assign pIC50 to each entry below.

# count of solved cases: 2
molecule: CC1(C)OC(=O)c2cc(Nc3nc(Nc4ccc5c(c4)CCNC5)ncc3Cl)ccc21
target of assay: UniProtKB Q92918
pIC50: 7.00 to 9.00

molecule: CC1(C)OC(=O)c2ccc(Nc3nc(Nc4ccc5c(c4)CCNC5)ncc3Cl)cc21
target of assay: UniProtKB Q92918
pIC50: 7.00 to 9.00

# context switch: different compound, same pIC50
[ask] Hi! What's the reported pIC50 for "CC1(C)OC(=O)c2ccc(Nc3ncc(Cl)c(Nc4ccc5c(c4)C(C)(C)OC5=O)n3)cc21" on UniProtKB Q92918?
[reply] 6.00 to 6.30
